Xanthine oxidase (Rattus norvegicus, UniProt P22985): recorded pIC50 for assorted molecules
Sequence (P22985 whole entry): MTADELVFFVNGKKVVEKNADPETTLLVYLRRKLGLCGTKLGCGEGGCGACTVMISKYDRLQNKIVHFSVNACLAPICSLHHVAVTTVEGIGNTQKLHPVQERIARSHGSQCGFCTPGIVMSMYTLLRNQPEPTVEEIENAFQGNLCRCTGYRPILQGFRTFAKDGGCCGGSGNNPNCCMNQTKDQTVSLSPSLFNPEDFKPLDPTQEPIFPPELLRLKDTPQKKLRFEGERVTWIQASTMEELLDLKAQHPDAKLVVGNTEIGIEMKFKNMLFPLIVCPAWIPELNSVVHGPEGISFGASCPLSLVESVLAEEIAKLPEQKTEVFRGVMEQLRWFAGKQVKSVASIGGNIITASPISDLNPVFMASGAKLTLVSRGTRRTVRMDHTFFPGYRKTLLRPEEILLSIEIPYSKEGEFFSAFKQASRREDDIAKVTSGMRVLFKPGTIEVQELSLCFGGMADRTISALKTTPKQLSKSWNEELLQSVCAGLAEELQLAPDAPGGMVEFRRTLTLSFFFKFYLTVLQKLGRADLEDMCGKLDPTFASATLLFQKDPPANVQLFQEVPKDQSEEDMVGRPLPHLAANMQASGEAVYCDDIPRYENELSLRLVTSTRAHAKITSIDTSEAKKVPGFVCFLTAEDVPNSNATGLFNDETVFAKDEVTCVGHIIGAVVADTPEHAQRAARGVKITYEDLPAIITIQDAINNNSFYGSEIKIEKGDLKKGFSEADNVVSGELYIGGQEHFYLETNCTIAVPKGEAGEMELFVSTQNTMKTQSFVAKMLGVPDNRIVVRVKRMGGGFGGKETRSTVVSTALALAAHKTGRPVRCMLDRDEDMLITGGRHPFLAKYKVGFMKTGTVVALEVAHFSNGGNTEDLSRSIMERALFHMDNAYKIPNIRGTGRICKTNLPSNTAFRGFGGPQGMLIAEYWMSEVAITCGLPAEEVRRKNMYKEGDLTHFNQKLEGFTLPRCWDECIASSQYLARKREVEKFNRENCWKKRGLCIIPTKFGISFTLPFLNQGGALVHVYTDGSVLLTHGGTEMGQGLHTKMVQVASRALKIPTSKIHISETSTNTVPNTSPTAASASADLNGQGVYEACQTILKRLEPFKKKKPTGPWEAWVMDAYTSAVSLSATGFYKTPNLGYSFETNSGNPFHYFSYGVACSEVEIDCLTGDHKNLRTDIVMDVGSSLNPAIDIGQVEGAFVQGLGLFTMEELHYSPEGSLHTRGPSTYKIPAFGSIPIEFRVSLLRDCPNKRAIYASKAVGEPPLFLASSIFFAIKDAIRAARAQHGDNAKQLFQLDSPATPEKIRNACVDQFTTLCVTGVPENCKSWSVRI
Worth noting: pIC50 values are minus log10 of concentrations stated in mol/L.

| chemicalSmiles | pIC50 |
| --- | --- |
| COc1ccc(-n2ncc3c(=O)[nH]nnc32)cc1Cl | 8.22 |

Below: the item to evaluate.
// query # get_value(readout= pIC50, system= Xanthine oxidase (Rattus norvegicus, UniProt P22985)) for `O=c1[nH]nnc2c1cnn2-c1cccc(C(F)(F)F)c1`
// result 7.46

Reference for the values: patent US4920119A
